- tgt: HLA-B*44:03
- measurement description: IEDB peptide-MHC binding, purified MHC/competitive/radioactivity; filed as Kd, often an IC50 or EC50 that approximates it; bounds were set here for any values at or beyond the usual limits of such assays
- conditions used: source organism: Mammarenavirus juninense

biopolymer sequence	tgt	Kd
MDYLILKNL	HLA-B*44:03	2740 nM

---

- tgt: HLA-C*04:01
- measurement description: IEDB peptide-MHC binding, purified MHC/competitive/fluorescence; filed as Kd, often an IC50 or EC50 that approximates it; bounds were set here for any values at or beyond the usual limits of such assays
- conditions used: source organism: Salmonella enterica subsp. enterica serovar Typhi
pKd: −log10 of the molar value.
Recorded pKd by entry
metric: pKd

biopolymer sequence	metric	result
AEFVFSCGI	pKd	≤ 5.30
MTMLTRWKI	pKd	≤ 5.30
